- Method notes: Cytotoxicity against human HuH7 cells infected with HCV genotype 1b Con-1 assessed as reduction in cell viability incubated for 5 days by CellTiter-Glo luminescent assay
- Format: cell-based, Huh-7
Property name: CC50 at 120 h

Any idea what its CC50 at 120 h is? The molecule is COC[C@H]1C[C@@H](c2ncc(-c3ccc4c(c3)COc3cc5c(ccc6nc([C@@H]7CC[C@H](C)N7C(=O)[C@@H](NC(=O)OC)C(C)C)[nH]c65)cc3-4)[nH]2)N(C(=O)[C@H](NC(=O)OC)c2ccccc2)C1
> 44.4 µM

====

- Method notes: Fraction absorbed in rat
- Type: ADME
- Cond: in vivo, read-out: Fabs
Property name: Fa (%)
Respond numerically; units are % and should not be typed.

For orientation, consider the following solved cases.
[[record]]
molecule = "COC(=O)N[C@@H](C(=O)N1C[C@@H](C)C[C@H]1c1ncc(-c2cc3c4c(c2)OCc2cc(-c5cnc([C@@H]6C[C@H](C)CN6C(=O)[C@H](NC(=O)OC)c6ccccc6)[nH]5)cc(c2-4)OC3)[nH]1)c1ccccc1"
property_name = "Fa"
measured_result = 2

[[record]]
molecule = "COC(=O)N[C@@H](C(=O)N1CCC[C@H]1c1ncc(-c2cc3c4c(c2)OCc2cc(-c5cnc([C@@H]6CCCN6C(=O)[C@H](NC(=O)OC)c6ccccc6)[nH]5)cc(c2-4)OC3)[nH]1)c1ccccc1"
property_name = "Fa"
measured_result = 2

[[record]]
molecule = "COC[C@H]1C[C@@H](c2ncc(-c3ccc4c(c3)COc3cc5c(ccc6nc([C@@H]7C[C@@H]8C[C@H]8N7C(=O)[C@@H](NC(=O)OC)C(C)C)[nH]c65)cc3-4)[nH]2)N(C(=O)[C@H](NC(=O)OC)c2ccccc2)C1"
property_name = "Fa"
measured_result = 13


Any idea what its Fa is? The molecule is COC(=O)N[C@H](C(=O)N1CCC[C@H]1c1ncc(-c2ccc3c(c2)COc2cc4c(ccc5nc([C@@H]6CCCN6C(=O)[C@H](NC(=O)OC)c6ccccc6)[nH]c54)cc2-3)[nH]1)C(C)C
13

Any idea what its Fa is? The molecule is COC(=O)N[C@H](C(=O)N1CCC[C@H]1c1ncc(-c2cc3c4c(c2)COc2cc(-c5cnc([C@@H]6CCCN6C(=O)[C@@H](NC(=O)OC)C(C)C)[nH]5)cc(c2-4)OC3)[nH]1)C(C)C
18

Any idea what its Fa is? The molecule is COC[C@H]1C[C@@H](c2ncc(-c3ccc4c(c3)COc3cc5c(ccc6nc([C@@H]7C[C@H](C)CN7C(=O)[C@@H](NC(=O)OC)C(C)C)[nH]c65)cc3-4)[nH]2)N(C(=O)[C@H](NC(=O)OC)c2ccccc2)C1
9

Any idea what its Fa is? The molecule is COC(=O)N[C@H](C(=O)N1CCC[C@H]1c1ncc(-c2ccc3c(c2)COc2cc4c(ccc5nc([C@@H]6CCCN6C(=O)[C@@H](NC(=O)OC)C(C)C)[nH]c54)cc2-3)[nH]1)C(C)C
15

Any idea what its Fa is? The molecule is COC[C@H]1C[C@@H](c2nc3ccc4cc5c(cc4c3[nH]2)OCc2cc(-c3cnc([C@@H]4CCCN4C(=O)[C@@H](NC(=O)OC)C(C)C)[nH]3)ccc2-5)N(C(=O)[C@@H](NC(=O)OC)C(C)C)C1
16

Any idea what its Fa is? The molecule is COC[C@H]1C[C@@H](c2ncc(-c3ccc4c(c3)COc3cc5c(ccc6nc([C@@H]7CC[C@H](C)N7C(=O)[C@@H](NC(=O)OC)C(C)C)[nH]c65)cc3-4)[nH]2)N(C(=O)[C@H](NC(=O)OC)c2ccccc2)C1 [VELPATASVIR]
36

====

- Method notes: Clearance in dog at 0.25 mg/kg, iv
- Type: ADME, organism-based, Canis lupus familiaris
- Cond: in vivo
Property name: clearance (mL/min/kg)
Respond numerically; units are mL/min/kg and should not be typed.

Any idea what its clearance is? The compound is COC[C@H]1C[C@@H](c2ncc(-c3ccc4c(c3)COc3cc5c(ccc6nc([C@@H]7CC[C@H](C)N7C(=O)[C@@H](NC(=O)OC)C(C)C)[nH]c65)cc3-4)[nH]2)N(C(=O)[C@H](NC(=O)OC)c2ccccc2)C1
4.17

====

- Method notes: Fraction absorbed in dog
- Type: ADME, Canis lupus familiaris
- Cond: in vivo, read-out: Fabs
Property name: Fa (%)
Respond numerically; units are % and should not be typed.

[[record]]
smiles_string = "COC(=O)N[C@@H](C(=O)N1CCC[C@H]1c1ncc(-c2cc3c4c(c2)OCc2cc(-c5cnc([C@@H]6CCCN6C(=O)[C@H](NC(=O)OC)c6ccccc6)[nH]5)cc(c2-4)OC3)[nH]1)c1ccccc1"
property_name = "Fa"
measured_result = 34


Any idea what its Fa is? The compound is COC(=O)N[C@H](C(=O)N1[C@@H](C)CC[C@H]1c1ncc(-c2ccc3c(c2)COc2cc4c(ccc5nc([C@@H]6CC[C@H](C)N6C(=O)[C@@H](NC(=O)OC)C(C)C)[nH]c54)cc2-3)[nH]1)C(C)C
100

Any idea what its Fa is? The compound is COC(=O)N[C@H](C(=O)N1CCC[C@H]1c1ncc(-c2ccc3c(c2)COc2c-3ccc3c2ccc2nc([C@@H]4CCCN4C(=O)[C@@H](NC(=O)OC)C(C)C)[nH]c23)[nH]1)C(C)C
54

Any idea what its Fa is? The compound is COC(=O)N[C@H](C(=O)N1CCC[C@H]1c1ncc(-c2ccc3c(c2)COc2cc4c(ccc5nc([C@@H]6CCCN6C(=O)[C@@H](NC(=O)OC)C(C)C)[nH]c54)cc2-3)[nH]1)C(C)C
50

Any idea what its Fa is? The compound is COC(=O)N[C@H](C(=O)N1CCC[C@H]1c1ncc(-c2ccc3c(c2)COc2cc4c(ccc5nc([C@@H]6CCCN6C(=O)[C@H](NC(=O)OC)c6ccccc6)[nH]c54)cc2-3)[nH]1)C(C)C
56
